# assay-summary: Binding affinity to human galectin-1 C3S mutant by fluorescence polarization analysis
measure: Kd (mM)
Your answer should be a plain number; it is taken to be in mM.

Qu. Could you share which Kd value was measured for CO[C@@H]1O[C@H](CO)[C@H](O)[C@H](OC(=O)c2ccc(C)cc2)[C@@H]1OC(=O)c1ccccc1[N+](=O)[O-] ?
Ans. 1.8

====

# assay-summary: Cytotoxicity against mouse bone marrow-derived stromal OP9 cells assessed as live cells at 100 uM measured after 3 days by trypan blue staining based assay relative to control
# Type: toxicity, cell-based
# condition-context: time 3 day, read-out: Activity
measure: viability at 72 h, 100 µM

Qu. What value of viability at 72 h, 100 µM has been reported for the following compound? CO[C@@H]1O[C@H](CO)[C@H](O)[C@H](OC(=O)c2ccc(C)cc2)[C@@H]1OC(=O)c1ccccc1[N+](=O)[O-]
Ans. ≥ 65%
